Target: recombinant human SAE enzyme (Homo sapiens)
Assay: SAE HTRF Enzyme Assay
Settings: class symbols A-C
Method: The SAE enzymatic reaction totals 50 μl and contains 50 mM HEPES Hemisodium (pH 7.5), 0.05% BSA, 5 mM MgCl2, 0.5 μM ATP, 250 μM GSH, 0.01 μM Ubc9-GST, 0.125 μM Sumo-Flag and 0.11 nM recombinant human SAE enzyme. […] After incubation for 2 hours at 24° C., quantification of FRET is performed on the Pherostar™ (BMG Labtech). Percentage inhibition values at a single concentration or enzyme inhibition (IC50) values are determined from those curves. […]
Each entry below carries its reported IC50.
Measurement label: IC50

Compound	Measurement label	Recorded result
NS(=O)(=O)OC[C@H]1C[C@@H](Nc2ncncc2C(=O)c2ccn(Cc3cccc(Br)c3F)n2)[C@@H](F)[C@@H]1O [Compound I-177]	IC50	< 10 nM
CC(c1ccc(Cl)o1)n1ccc(C(=O)c2cncnc2N[C@@H]2C[C@H](COS(N)(=O)=O)[C@@H](O)[C@@H]2F)c1 (single isomer, unassigned) [Compound I-350]	IC50	< 10 nM
NS(=O)(=O)OC[C@H]1C[C@@H](Nc2ncncc2C(=O)c2ccn(Cc3ccnc(C(F)(F)F)c3)n2)C[C@@H]1O [Compound I-53]	IC50	10 to 100 nM
Cc1cc(C(=O)c2cncnc2N[C@@H]2C[C@H](COS(N)(=O)=O)[C@@H](O)C2)nn1Cc1cccc(I)c1 [Compound I-347]	IC50	< 10 nM
NS(=O)(=O)OC[C@H]1C[C@@H](Nc2ncncc2C(=O)c2ccn(Cc3ccc(C(F)F)o3)c2)[C@@H](F)[C@@H]1O [Compound I-87]	IC50	< 10 nM
NS(=O)(=O)OC[C@H]1C[C@@H](Nc2ncncc2C(=O)c2ccn(Cc3ccc(Cl)c(Cl)c3)c2)[C@@H](F)[C@@H]1O [Compound I-331]	IC50	< 10 nM

* * *

Target: recombinant human SAE enzyme (Homo sapiens)
Sequence (Q9UBT2 1-640): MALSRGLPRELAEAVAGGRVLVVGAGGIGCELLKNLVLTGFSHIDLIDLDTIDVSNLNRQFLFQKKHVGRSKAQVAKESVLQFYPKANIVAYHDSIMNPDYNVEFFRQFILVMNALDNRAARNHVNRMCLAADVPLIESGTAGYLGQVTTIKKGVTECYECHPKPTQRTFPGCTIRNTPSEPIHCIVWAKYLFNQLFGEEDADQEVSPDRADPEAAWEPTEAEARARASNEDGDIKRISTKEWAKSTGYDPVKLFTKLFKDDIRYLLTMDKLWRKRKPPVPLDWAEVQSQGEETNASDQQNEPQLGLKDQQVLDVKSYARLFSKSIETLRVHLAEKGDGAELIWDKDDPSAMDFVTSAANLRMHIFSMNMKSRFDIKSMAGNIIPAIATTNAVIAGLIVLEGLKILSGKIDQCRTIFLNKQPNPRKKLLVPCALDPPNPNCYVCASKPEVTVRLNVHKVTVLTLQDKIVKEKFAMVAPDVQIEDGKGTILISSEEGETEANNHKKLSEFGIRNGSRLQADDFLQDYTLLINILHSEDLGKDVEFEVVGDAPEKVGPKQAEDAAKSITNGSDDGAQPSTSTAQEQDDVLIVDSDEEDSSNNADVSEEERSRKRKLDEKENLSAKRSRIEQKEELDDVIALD
Sequence (Q9UBE0 1-346 partner): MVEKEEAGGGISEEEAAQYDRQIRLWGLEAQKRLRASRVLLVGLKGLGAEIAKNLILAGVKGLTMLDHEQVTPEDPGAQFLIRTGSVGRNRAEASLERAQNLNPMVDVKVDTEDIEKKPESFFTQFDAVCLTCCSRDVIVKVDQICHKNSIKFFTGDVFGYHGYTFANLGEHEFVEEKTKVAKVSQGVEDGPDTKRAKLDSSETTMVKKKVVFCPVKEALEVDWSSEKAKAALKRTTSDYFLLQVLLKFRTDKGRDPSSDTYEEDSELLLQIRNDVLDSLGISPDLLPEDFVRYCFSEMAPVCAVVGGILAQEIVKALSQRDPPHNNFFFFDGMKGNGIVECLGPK
Experiment: SAE HTRF Enzyme Assay
Assay type: biochemical
Settings: compound concentration 0.111 μM; read-out: Percent Inhibition
Items are presented alongside their recorded inhibition at 0.111 µM.

Item smiles	inhibition at 0.111 µM
NS(=O)(=O)OC[C@H]1C[C@@H](Nc2ncncc2C(=O)c2ccn(Cc3cccc(OC(F)F)c3)c2)[C@@H](F)[C@@H]1O	99%
NS(=O)(=O)OC[C@H]1C[C@@H](Nc2ncncc2C(=O)c2ccn(Cc3ccc(Cl)c(Br)c3)n2)C[C@@H]1O	> 99%
NS(=O)(=O)OC[C@H]1C[C@@H](Nc2ncncc2C(=O)c2ccn(Cc3ccc(F)c(F)c3)n2)C[C@@H]1O	95%
NS(=O)(=O)OC[C@H]1C[C@@H](Nc2ncncc2C(=O)c2ccn(Cc3cc(C(F)(F)F)ccc3C(F)(F)F)n2)[C@H](O)[C@@H]1O	97%
NS(=O)(=O)OC[C@H]1C[C@@H](Nc2ncncc2C(=O)c2ccn(CC3CCCCC3)n2)C[C@@H]1O	90%
NS(=O)(=O)OC[C@H]1C[C@@H](Nc2ncncc2C(=O)c2ccn(Cc3ccccn3)n2)[C@H](O)[C@@H]1O	98%
NS(=O)(=O)OC[C@H]1C[C@@H](Nc2ncncc2C(=O)c2ccn(Cc3ccc(OC(F)(F)F)cc3)n2)[C@H](O)[C@@H]1O	95%
NS(=O)(=O)OC[C@H]1C[C@@H](Nc2ccncc2C(=O)c2ccn(Cc3cccc(OC(F)(F)F)c3)c2)C[C@@H]1O	88%
NS(=O)(=O)NC[C@H]1C[C@@H](Nc2ncncc2C(=O)c2ccn(Cc3cccc(Cl)c3)n2)[C@H](O)[C@@H]1O	88%
CC#CCn1ccc(C(=O)c2cncnc2N[C@@H]2C[C@H](COS(N)(=O)=O)[C@@H](O)[C@@H]2F)c1	90%
NS(=O)(=O)OC[C@H]1C[C@@H](Nc2ncnc(Cl)c2C(=O)c2ccn(Cc3cccc(Cl)c3)n2)C[C@@H]1O	63%
Cc1cccc(Cn2ccc(C(=O)c3cncnc3N[C@@H]3C[C@H](COS(N)(=O)=O)[C@@H](O)C3)n2)c1	98%
NS(=O)(=O)OC[C@H]1C[C@@H](Nc2ncncc2C(=O)c2ccn(Cc3c(F)c(F)c(F)c(F)c3F)n2)[C@H](O)[C@@H]1O	95%
Cc1cc(C(=O)c2cncnc2N[C@@H]2C[C@H](COS(N)(=O)=O)[C@@H](O)[C@@H]2F)nn1Cc1cccc(I)c1	100%
NS(=O)(=O)OC[C@H]1C[C@@H](Nc2ncncc2C(=O)c2nn(Cc3cccc(Br)c3)cc2Cl)C[C@@H]1O	91%
NS(=O)(=O)OC[C@H]1C[C@@H](Nc2ncncc2C(=O)c2ccn(Cc3ccc(Cl)c(SC(F)(F)F)c3)n2)[C@H](O)[C@@H]1O	> 99%
NS(=O)(=O)OC[C@H]1C[C@@H](Nc2ccncc2C(=O)c2ccn(Cc3cccc(Br)c3)n2)C[C@@H]1O	99%
NS(=O)(=O)OC[C@H]1C[C@@H](Nc2ncncc2C(=O)c2ccn(CC#CCC3CCOCC3)n2)C[C@@H]1O	39%
Cc1cc(Cn2ccc(C(=O)c3cncnc3N[C@@H]3C[C@H](COS(N)(=O)=O)[C@@H](O)[C@@H]3F)c2)on1	95%
NS(=O)(=O)OC[C@H]1C[C@@H](Nc2ncncc2C(=O)c2cc(Cl)n(Cc3ccc(Cl)o3)c2)[C@@H](F)[C@@H]1O	99%
NS(=O)(=O)OC[C@H]1C[C@@H](Nc2ncncc2C(=O)c2ccn(Cc3cc(Cl)ccc3Cl)n2)C[C@@H]1O	98%
NS(=O)(=O)OC[C@H]1C[C@@H](Nc2ncncc2C(=O)c2ccn(Cc3cccc(OC(F)(F)F)c3)c2)[C@@H](F)[C@@H]1O	96%
Cc1cc(C(=O)c2cncnc2N[C@@H]2C[C@H](COS(N)(=O)=O)[C@@H](O)[C@@H]2F)nn1Cc1cccc(Br)c1	> 99%
Cc1cc(Cn2ccc(C(=O)c3cncnc3N[C@@H]3C[C@H](COS(N)(=O)=O)[C@@H](O)[C@@H]3F)c2)no1	97%
Cn1cccc(Cn2ccc(C(=O)c3cncnc3N[C@@H]3C[C@H](COS(N)(=O)=O)[C@@H](O)C3)n2)c1=O	96%
